- target.entity: Epithelial discoidin domain-containing receptor 1 (Homo sapiens)
- Sequence (Q08345 whole entry, the tested form may be a part): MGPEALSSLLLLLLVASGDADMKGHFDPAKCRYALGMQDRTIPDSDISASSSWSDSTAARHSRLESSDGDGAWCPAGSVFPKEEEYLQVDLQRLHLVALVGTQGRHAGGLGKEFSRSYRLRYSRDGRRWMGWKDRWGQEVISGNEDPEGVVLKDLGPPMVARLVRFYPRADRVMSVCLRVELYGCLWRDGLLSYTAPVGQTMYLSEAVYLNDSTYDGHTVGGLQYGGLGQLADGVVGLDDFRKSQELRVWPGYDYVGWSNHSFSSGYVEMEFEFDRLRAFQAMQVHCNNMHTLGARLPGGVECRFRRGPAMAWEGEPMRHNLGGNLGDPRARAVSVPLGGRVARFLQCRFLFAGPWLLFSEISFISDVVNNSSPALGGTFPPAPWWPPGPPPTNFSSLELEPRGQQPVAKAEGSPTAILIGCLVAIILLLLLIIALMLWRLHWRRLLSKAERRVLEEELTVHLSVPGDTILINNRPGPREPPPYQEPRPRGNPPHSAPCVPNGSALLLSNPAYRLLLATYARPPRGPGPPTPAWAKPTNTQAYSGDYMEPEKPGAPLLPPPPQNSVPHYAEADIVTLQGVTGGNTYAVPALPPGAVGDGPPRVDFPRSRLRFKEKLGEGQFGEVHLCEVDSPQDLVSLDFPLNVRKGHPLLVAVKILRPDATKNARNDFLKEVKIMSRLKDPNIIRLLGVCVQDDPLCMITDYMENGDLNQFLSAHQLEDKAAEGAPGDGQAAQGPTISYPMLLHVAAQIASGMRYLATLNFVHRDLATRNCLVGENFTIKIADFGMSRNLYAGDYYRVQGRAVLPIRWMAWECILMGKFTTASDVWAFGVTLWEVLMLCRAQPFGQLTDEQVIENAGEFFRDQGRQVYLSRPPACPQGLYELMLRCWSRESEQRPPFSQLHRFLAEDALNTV
pIC50: −log10 of the molar value.

item.smiles	pIC50
CNc1nc(Nc2ccc(C)c(N)c2)ncc1C(=O)Nc1cc(NC(=O)c2cccc(C(F)(F)F)c2)ccc1C	6.53

###

- target.entity: Mitogen-activated protein kinase 14 (Homo sapiens, UniProt Q16539)
- Sequence (Q16539 whole entry): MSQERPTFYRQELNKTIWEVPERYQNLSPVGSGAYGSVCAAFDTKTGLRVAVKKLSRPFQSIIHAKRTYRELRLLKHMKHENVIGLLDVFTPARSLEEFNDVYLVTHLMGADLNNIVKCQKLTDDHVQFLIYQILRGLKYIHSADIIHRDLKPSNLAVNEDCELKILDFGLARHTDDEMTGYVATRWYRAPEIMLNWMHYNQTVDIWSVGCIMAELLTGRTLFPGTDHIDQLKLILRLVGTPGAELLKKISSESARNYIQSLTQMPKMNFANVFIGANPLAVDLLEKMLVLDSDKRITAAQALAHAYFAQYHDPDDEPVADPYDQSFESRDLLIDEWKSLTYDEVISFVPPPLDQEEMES
- method.notes: Inhibition of full length recombinant GST-tagged human p38-alpha expressed in Escherichia coli

item.smiles	unit.annotation	IC50
CNc1nc(Nc2ccc(C)c(N)c2)ncc1C(=O)Nc1cc(NC(=O)c2cccc(C(F)(F)F)c2)ccc1C	nM	62

###

Measured GI50 of individual entries
- target.entity: Bcr/Abl fusion protein (Homo sapiens) (UniProt P00519+P11274)
- Sequence (P00519 whole entry, looked up, the tested form may be a part): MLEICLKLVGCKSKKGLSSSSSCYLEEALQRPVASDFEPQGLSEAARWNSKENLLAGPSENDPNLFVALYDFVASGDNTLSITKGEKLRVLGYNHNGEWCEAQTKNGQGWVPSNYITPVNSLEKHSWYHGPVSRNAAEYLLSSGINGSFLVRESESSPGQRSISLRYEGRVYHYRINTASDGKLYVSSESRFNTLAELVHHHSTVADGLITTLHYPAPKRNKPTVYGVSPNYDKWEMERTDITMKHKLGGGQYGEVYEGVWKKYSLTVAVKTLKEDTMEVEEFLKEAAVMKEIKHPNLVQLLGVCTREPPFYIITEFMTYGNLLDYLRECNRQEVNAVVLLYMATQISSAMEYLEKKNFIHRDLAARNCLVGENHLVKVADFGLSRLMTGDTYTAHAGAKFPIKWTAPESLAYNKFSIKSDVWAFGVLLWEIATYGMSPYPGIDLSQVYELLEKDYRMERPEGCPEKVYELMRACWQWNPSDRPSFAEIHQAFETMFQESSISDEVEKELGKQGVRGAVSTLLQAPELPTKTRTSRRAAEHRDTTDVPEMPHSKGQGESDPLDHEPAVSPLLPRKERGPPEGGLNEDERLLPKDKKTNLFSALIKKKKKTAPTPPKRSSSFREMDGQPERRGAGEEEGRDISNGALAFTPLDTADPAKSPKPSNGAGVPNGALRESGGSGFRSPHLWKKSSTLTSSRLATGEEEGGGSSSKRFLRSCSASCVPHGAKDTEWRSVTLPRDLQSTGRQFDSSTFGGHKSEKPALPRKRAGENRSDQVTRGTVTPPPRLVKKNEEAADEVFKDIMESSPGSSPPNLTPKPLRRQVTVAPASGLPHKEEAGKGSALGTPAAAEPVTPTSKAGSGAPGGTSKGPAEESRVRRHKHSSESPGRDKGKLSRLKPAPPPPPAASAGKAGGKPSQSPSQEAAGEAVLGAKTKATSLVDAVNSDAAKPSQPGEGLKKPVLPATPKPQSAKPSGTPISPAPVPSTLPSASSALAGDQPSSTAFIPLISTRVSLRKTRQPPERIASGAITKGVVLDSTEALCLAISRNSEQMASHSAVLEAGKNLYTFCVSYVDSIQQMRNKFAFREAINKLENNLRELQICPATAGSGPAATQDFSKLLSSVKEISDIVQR
- Sequence (P11274 whole entry, looked up, the tested form may be a part): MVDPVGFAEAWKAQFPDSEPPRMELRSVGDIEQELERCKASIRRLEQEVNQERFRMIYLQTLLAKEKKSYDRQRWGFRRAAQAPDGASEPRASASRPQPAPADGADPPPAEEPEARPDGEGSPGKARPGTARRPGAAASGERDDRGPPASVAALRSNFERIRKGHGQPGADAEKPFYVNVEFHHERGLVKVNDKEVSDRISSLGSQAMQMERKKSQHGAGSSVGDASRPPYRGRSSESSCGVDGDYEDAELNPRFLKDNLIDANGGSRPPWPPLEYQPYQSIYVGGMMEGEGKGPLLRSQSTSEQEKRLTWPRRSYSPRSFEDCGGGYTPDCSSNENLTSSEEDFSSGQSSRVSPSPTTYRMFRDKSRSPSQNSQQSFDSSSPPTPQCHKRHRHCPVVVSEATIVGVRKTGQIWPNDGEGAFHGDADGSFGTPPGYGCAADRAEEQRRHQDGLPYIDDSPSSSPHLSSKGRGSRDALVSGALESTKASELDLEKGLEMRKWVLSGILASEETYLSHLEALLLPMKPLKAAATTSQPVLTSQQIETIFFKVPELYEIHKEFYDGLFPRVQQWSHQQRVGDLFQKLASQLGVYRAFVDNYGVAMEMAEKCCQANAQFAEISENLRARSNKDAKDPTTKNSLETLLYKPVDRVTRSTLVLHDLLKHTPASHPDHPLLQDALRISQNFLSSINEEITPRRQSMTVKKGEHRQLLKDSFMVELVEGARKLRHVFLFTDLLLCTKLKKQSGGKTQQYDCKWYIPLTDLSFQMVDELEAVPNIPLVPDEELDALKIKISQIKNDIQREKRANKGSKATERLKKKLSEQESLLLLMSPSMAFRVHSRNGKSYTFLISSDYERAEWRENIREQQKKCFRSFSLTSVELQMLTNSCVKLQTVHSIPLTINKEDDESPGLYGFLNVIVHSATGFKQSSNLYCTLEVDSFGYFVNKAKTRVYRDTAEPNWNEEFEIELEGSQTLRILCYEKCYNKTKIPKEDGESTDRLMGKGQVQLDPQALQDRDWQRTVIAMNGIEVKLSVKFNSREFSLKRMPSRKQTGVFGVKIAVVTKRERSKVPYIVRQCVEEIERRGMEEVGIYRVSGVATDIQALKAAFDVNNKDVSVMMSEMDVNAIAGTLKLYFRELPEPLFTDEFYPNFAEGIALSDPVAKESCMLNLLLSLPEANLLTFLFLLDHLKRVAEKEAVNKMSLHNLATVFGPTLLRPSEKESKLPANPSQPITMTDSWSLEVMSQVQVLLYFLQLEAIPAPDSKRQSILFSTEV
- experimental.context: BaF3
- Description: Inhibition of BCR/ABL p210 (unknown origin) expressed in mouse BA/F3 cells assessed as growth inhibition after 72 hrs by CellTiter-Glo or CCK-8 assay
parameter: GI50 (nM)

item.smiles	unit.annotation	limit.sign	measured
CNc1nc(Nc2ccc(C)c(N)c2)ncc1C(=O)Nc1cc(NC(=O)c2cccc(C(F)(F)F)c2)ccc1C	nM	=	7
Cc1ccc(NC(=O)c2cccc(C(F)(F)F)c2)cc1N1Cc2cnc(NCCCN3CCOCC3)nc2N(C)C1=O	nM	=	15
CNc1nc(Nc2ccc(C)c(N)c2)ncc1C(=O)Nc1cc(NC(=O)c2ccc3c(c2)OCO3)ccc1C	nM	=	124
CNc1nc(Nc2ccc(C)c([N+](=O)[O-])c2)ncc1C(=O)Nc1cc(NC(=O)c2ccc(OC)cc2)ccc1C	nM	=	3600
Cc1ccc(NC(=O)c2cccc(C(F)(F)F)c2)cc1N1Cc2cnc(OC3CCN(C(=O)OC(C)(C)C)CC3)nc2N(C)C1=O	nM	=	132
CNc1nc(Nc2ccc(C)c([N+](=O)[O-])c2)ncc1C(=O)Nc1cc(NC(=O)c2cccc(OC)c2)ccc1C	nM	=	1100
Cc1ccc(Nc2ncc(C(=O)Nc3cc(NC(=O)c4cccc(C(F)(F)F)c4)ccc3C)cn2)cc1N	nM	=	470
CNc1nc(Nc2ccc(C)c([N+](=O)[O-])c2)ncc1C(=O)Nc1cc(NC(=O)c2cc(OC)c(OC)c(OC)c2)ccc1C	nM	=	1500
Cc1ccc(Nc2ncc3c(n2)N(C)C(=O)N(c2cc(NC(=O)c4cccc(C(F)(F)F)c4)ccc2C)C3)cc1	nM	=	19
CNc1nc(Nc2ccc(C)c(N)c2)ncc1C(=O)Nc1cc(NC(=O)c2ccc(OC)c(OC)c2)ccc1C	nM	=	1600
Cc1ccc(NC(=O)c2cccc(C(F)(F)F)c2)cc1N1Cc2cnc(Nc3ccc(C)c(C(F)(F)F)c3)nc2N(C)C1=O	nM	=	67
Cc1ccc(Nc2ncc3c(n2)N(C)C(=O)N(c2cc(NC(=O)c4cc(C(C)(C)C)cc(C(C)(C)C)c4)ccc2C)C3)cc1N	nM	=	120
Cc1cccc(C(=O)Nc2ccc(C)c(N3Cc4cnc(Nc5ccc(C)c(N)c5)nc4N(C)C3=O)c2)c1	nM	=	14
Cc1ccc(NC(=O)c2cccc(C(F)(F)F)c2)cc1N1Cc2cnc(NC3CCNCC3)nc2N(C)C1=O	nM	=	150
CNc1nc(Nc2ccc(C)c([N+](=O)[O-])c2)ncc1C(=O)Nc1cc(NC(=O)c2ccc(OC)c(OC)c2)ccc1C	nM	=	1600
Cc1ccc(NC(=O)c2cccc(C(F)(F)F)c2)cc1N1Cc2cnc(NC3CCN(C(=O)OC(C)(C)C)CC3)nc2N(C)C1=O	nM	=	55
CNc1nc(Nc2ccc(C)c([N+](=O)[O-])c2)ncc1C(=O)Nc1cc(NC(=O)c2ccc3c(c2)OCO3)ccc1C	nM	=	214
CNc1nc(Nc2ccc(C)c(N)c2)ncc1C(=O)Nc1cc(NC(=O)c2ccc3c(c2)OCCO3)ccc1C	nM	=	1100
CNc1nc(Nc2ccc(C)c(N)c2)ncc1C(=O)Nc1cc(NC(=O)c2ccccc2OC)ccc1C	nM	=	6400
Cc1ccc(NC(=O)c2cccc(C(F)(F)F)c2)cc1NC(=O)c1cnc(Nc2ccc(C)c([N+](=O)[O-])c2)nc1N(C)C	nM	>	10000
CNc1nc(Nc2ccc(C)c([N+](=O)[O-])c2)ncc1C(=O)Nc1cc(NC(=O)c2cccc(C(F)(F)F)c2)ccc1C	nM	=	36
CNc1nc(Nc2ccc(C)c([N+](=O)[O-])c2)ncc1C(=O)Nc1cc(NC(=O)c2cc(OC)cc(OC)c2)ccc1C	nM	=	294
Cc1ccc(Nc2ncc3c(n2)N(C)C(=O)N(c2cc(NC(=O)c4cccc(C(F)(F)F)c4)ccc2C)C3)cc1N(C)C	nM	=	30
Cc1ccc(Nc2ncc3c(n2)N(C)C(=O)N(c2cc(NC(=O)c4cccc(-c5ccccc5)c4)ccc2C)C3)cc1N	nM	=	46
CNc1nc(Nc2ccc(C)c(N)c2)ncc1C(=O)Nc1cc(NC(=O)c2ccc(OC)cc2)ccc1C	nM	=	2100
Cc1cc(C)cc(C(=O)Nc2ccc(C)c(N3Cc4cnc(Nc5ccc(C)c(N)c5)nc4N(C)C3=O)c2)c1	nM	=	42
CNc1nc(Nc2ccc(C)c(N)c2)ncc1C(=O)Nc1cc(NC(=O)c2cc(OC)cc(OC)c2)ccc1C	nM	=	311
Cc1ccc(Nc2ncc3c(n2)N(C)C(=O)N(c2cc(NC(=O)c4cccc(C(F)(F)F)c4)ccc2C)C3)cc1C	nM	=	66
Cc1ccc(NC(=O)c2cccc(C(F)(F)F)c2)cc1N1Cc2cnc(O[C@H]3CCNC3)nc2N(C)C1=O	nM	=	1260
CNc1nc(Nc2ccc(C)c(N)c2)ncc1C(=O)Nc1cc(NC(=O)c2cc(OC)c(OC)c(OC)c2)ccc1C	nM	=	670
Cc1ccc(NC(=O)c2cccc(C(F)(F)F)c2)cc1N1Cc2cnc(O[C@H]3CCN(C(=O)OC(C)(C)C)C3)nc2N(C)C1=O	nM	=	126
Cc1ccc(Oc2ncc3c(n2)N(C)C(=O)N(c2cc(NC(=O)c4cccc(C(F)(F)F)c4)ccc2C)C3)cc1N	nM	=	32

Where do these numbers come from? They come from ChEMBL document CHEMBL3779840.
